# measuredTarget: Src SH3 domain (Homo sapiens)
# Construct: fyn, yes, lck, and src SH3 protein domains were prepared following published procedures; made in house
# protocolNotes: ITC binding to Src SH3 domain
# details: 25 °C
observationType: pKd
Here pKd is given on a logarithmic scale as minus log10 of the concentration in mol/L.

Request: Notebook entry, Src SH3 domain (Homo sapiens) assay: pKd of AcVELARRPLPPLPN-NH2 [S2E^Rh] = ?
Response: 6.49

* * *

# measuredTarget: Hck SH3 domain (Homo sapiens)
# Construct: The hck SH3 domain was amplified by PCR using Phusion DNA polymerase; GST (N, cleaved yes); made in house; host or cells: E. coli BL21 (DE3)
# Sequence (P08631 77-139): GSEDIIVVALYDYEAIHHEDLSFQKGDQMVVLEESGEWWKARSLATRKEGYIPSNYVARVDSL
# protocolNotes: ITC binding to Hck SH3 domain (two-sets-of-sites fit)
# details: 25 °C, high affinity specific site
observationType: pKd
Scale for pKd: -log10 of concentration given in mol/L; no unit attached.

Request: Please report the recorded pKd for R6E^Rh: rhodium(II) metallopeptide based on Src-family SH3-binding sequence (VSL12), rhodium at residue 6 (VSLAREPLPPLPN; N-terminal acetyl, C-terminal amide) .
Response: 7.29

Request: Which value of pKd has been reported for AcVELARRPLPPLPN-NH2 (Ac-VELARRPLPPLPN-NH2; also: Glu2 side-chain carboxylate bound to Rh2(OAc)3) [S2E^Rh, rhodium(II) metallopeptide made from S2E peptide (Ac…-NH2) and Rh2(tfa)(OAc)3] in the records?
Response: 7.59

Request: Look up pKd for this substance: P12D^Rh: metallopeptide with the rhodium core moved to the 12th residue (VSLARRPLPPLDN; N-terminal acetyl, C-terminal amide)
Response: 5.64

Request: // lookup pKd for L3E^Rh: rhodium(II) metallopeptide based on Src-family SH3-binding sequence (VSL12), rhodium at residue 3 (VSEARRPLPPLPN; N-terminal acetyl, C-terminal amide)
Response: 7.28

Request: Dear colleague, I am looking for the recorded pKd of the following substance: N13D^Rh: negative control metallopeptide with the rhodium center too far for histidine interactions (VSLARRPLPPLPD; N-terminal acetyl, C-terminal amide)
Response: 6.26

Source: paper PMC5667506
